- Test system: Leishmania braziliensis
- Procedure details: Leishmanicidal activity against Leishmania braziliensis MHOM/BR/75/M2903 promastigotes after 72 hrs
- Assay type: functional, organism-based
- Cond: MHOM/BR/75/M2903, 72 h
Readout label: pIC50
Scale: negative log10 of molar concentration, which is what pIC50 denotes.

Smiles code	pIC50
N=C(N)c1ccc(OCCCCCOc2ccc(C(=N)N)cc2)cc1	5.01

With those in mind, consider the next compound.
Item: "Oc1ccc(CCc2cc(O)ccc2O)cc1" | pIC50: 5.96

src = ChEMBL document CHEMBL1154439
